Subject of test: T1, monkey MSR1 extracellular domain expressed with a N-terminal hexahistidine-myc-myc tag (HMM-mfMSR1) (monkey (Macaca fascicularis))
T1 chain: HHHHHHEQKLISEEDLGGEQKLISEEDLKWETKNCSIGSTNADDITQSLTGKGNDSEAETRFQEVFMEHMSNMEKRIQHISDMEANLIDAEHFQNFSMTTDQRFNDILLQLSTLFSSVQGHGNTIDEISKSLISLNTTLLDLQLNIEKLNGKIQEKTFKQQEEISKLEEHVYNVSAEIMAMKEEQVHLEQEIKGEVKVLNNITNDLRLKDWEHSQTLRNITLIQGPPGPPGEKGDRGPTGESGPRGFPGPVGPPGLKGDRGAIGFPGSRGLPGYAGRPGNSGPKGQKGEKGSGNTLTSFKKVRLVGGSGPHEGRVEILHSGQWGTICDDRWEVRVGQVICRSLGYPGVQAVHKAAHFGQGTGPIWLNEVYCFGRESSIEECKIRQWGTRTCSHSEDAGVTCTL
Test summary: SPR Biacore, 25 C, antibody captured;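 further: rates from 1:1 fit with mass transport limitation of real-time sensorgrams, HEPES-buffered saline with EDTA and Tween-20 at pH 7.4, KD and t½ derived from the kinetic rates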
Quick rule for you: Kd under 0.07 nM gets true, anything else gets false.

Would you kindly verify if Kd of H1H21234N-N297Q (antibody, V domains shown, Human IgG1 Fc with N297Q point mutation (EU numbering)) VH: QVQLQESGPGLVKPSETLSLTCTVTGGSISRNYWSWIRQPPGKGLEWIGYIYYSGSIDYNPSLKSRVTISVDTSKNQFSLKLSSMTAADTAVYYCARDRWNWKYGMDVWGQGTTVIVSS VL: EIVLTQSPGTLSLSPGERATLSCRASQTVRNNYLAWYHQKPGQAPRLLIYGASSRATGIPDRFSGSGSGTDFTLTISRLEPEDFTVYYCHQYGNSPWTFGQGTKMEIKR is strictly less than 0.07 nM?
true
